# Tested on: Acetyl-CoA carboxylase 1 (Homo sapiens)
# Experiment: Inhibition of recombinant human C-terminal His-tagged ACC1 (1 to 2383 residues) expressed in baculovirus infected Sf9 insect cells at 0.1 uM preincubated for 15 mins followed by substrate addition and measured after 60 mins by ADP-glo luminescence assay relative to control
Think of 90% as a floor: if inhibition stands on it or above, it is rule met; beneath it, rule not met.

A selection of reference data follows.
[
  {
    "Chem smiles": "COc1ccc(-c2cc(C(=O)N3CCC4(CC3)CC(=O)c3nn(C(C)(C)C)cc3O4)c3ccccc3n2)cc1",
    "Label": "rule met"
  },
  {
    "Chem smiles": "COc1ccc(-c2cc(C(=O)N3CCC4(CC3)CC(=O)c3nn(C(C)(C)C)cc3O4)c3ccccc3n2)cc1OC",
    "Label": "rule met"
  },
  {
    "Chem smiles": "CCOc1cc(C(=O)N2CCC3(CC2)CC(=O)c2nn(C(C)(C)C)cc2O3)c2ccccc2n1",
    "Label": "rule not met"
  },
  {
    "Chem smiles": "CC(C)(C)n1cc2c(n1)C(=O)CC1(CCN(C(=O)c3cc(N4CCOCC4)nc4ccccc34)CC1)O2",
    "Label": "rule not met"
  },
  {
    "Chem smiles": "CC(C)(C)n1cc2c(n1)C(=O)CC1(CCN(C(=O)c3ccc4[nH]ncc4c3)CC1)O2",
    "Label": "rule not met"
  },
  {
    "Chem smiles": "CC(C)(C)n1cc2c(n1)C(=O)CC1(CCN(C(=O)c3cc(-c4ccccn4)nc4ccccc34)CC1)O2",
    "Label": "rule not met"
  }
]

**Query** Say whether CC(C)(C)n1cc2c(n1)C(=O)CC1(CCN(C(=O)c3cc(-c4ccc(N)cc4)nc4ccccc34)CC1)O2 shows inhibition of 90% or more.
**Result** rule met

**Query** Threshold query (inhibition >= 90%) on CC(C)(C)n1cc2c(n1)C(=O)CC1(CCN(C(=O)c3cc(-c4ccc(Br)cc4)nc4ccccc34)CC1)O2
**Result** rule met

**Query** Does the compound Cc1ccc(-c2cc(C(=O)N3CCC4(CC3)CC(=O)c3nn(C(C)(C)C)cc3O4)c3ccccc3n2)cc1 have recorded inhibition that is 90% or more?
**Result** rule met

**Query** Does CC(C)(C)n1cc2c(n1)C(=O)CC1(CCN(C(=O)c3cc(-c4ccc(F)cc4)nc4ccccc34)CC1)O2 have a reported inhibition of at least 90%?
**Result** rule not met

**Query** Does inhibition meet or surpass 90% for Cc1cc(C(=O)N2CCC3(CC2)CC(=O)c2nn(C(C)(C)C)cc2O3)c2ccccc2n1 ?
**Result** rule not met

###

# Tested on: Acetyl-CoA carboxylase 1 (Homo sapiens)
# Experiment: Inhibition of recombinant human C-terminal His-tagged ACC1 (1 to 2383 residues) expressed in baculovirus infected Sf9 insect cells at 5 uM preincubated for 15 mins followed by substrate addition and measured after 60 mins by ADP-glo luminescence assay relative to control
So I've got a bunch of molecules here, and I need their inhibition values.
Answers are plain numbers, in %.

For orientation, consider the following solved cases.
[
  {
    "Chem smiles": "CC(C)(C)n1cc2c(n1)C(=O)CC1(CCN(C(=O)c3cc(N4CCOCC4)nc4ccccc34)CC1)O2",
    "Reading unit": "%",
    "Endpoint result": 97.7
  },
  {
    "Chem smiles": "COc1ccc(-c2cc(C(=O)N3CCC4(CC3)CC(=O)c3nn(C(C)(C)C)cc3O4)c3ccccc3n2)cc1OC",
    "Reading unit": "%",
    "Endpoint result": 102
  },
  {
    "Chem smiles": "Cc1cc(C(=O)N2CCC3(CC2)CC(=O)c2nn(C(C)(C)C)cc2O3)c2ccccc2n1",
    "Reading unit": "%",
    "Endpoint result": 93.6
  },
  {
    "Chem smiles": "CC(C)(C)n1cc2c(n1)C(=O)CC1(CCN(C(=O)c3cc(-c4ccc(F)cc4)nc4ccccc34)CC1)O2",
    "Reading unit": "%",
    "Endpoint result": 100
  },
  {
    "Chem smiles": "CC(C)(C)n1cc2c(n1)C(=O)CC1(CCN(C(=O)c3cc(-c4ccccc4Cl)nc4ccccc34)CC1)O2",
    "Reading unit": "%",
    "Endpoint result": 94.4
  }
]

// batch mode: one inhibition value per listed entry
1. CN(C)c1ccc(-c2cc(C(=O)N3CCC4(CC3)CC(=O)c3nn(C(C)(C)C)cc3O4)c3ccccc3n2)cc1
2. CC(C)(C)n1cc2c(n1)C(=O)CC1(CCN(C(=O)c3cc(-c4ccc(Br)cc4)nc4ccccc34)CC1)O2
3. COc1cc(C(=O)N2CCC3(CC2)CC(=O)c2nn(C(C)(C)C)cc2O3)c2ccccc2n1
4. Cc1ccccc1-c1cc(C(=O)N2CCC3(CC2)CC(=O)c2nn(C(C)(C)C)cc2O3)c2ccccc2n1
5. CC(C)(C)n1cc2c(n1)C(=O)CC1(CCN(C(=O)c3cc(Cl)nc4ccccc34)CC1)O2

**Result**
1. 99.6
2. 102
3. 93.8
4. 95.5
5. 96.7

Go through the items and report each one's inhibition.
1. CC(C)(C)n1cc2c(n1)C(=O)CC1(CCN(C(=O)c3cc(-c4ccccn4)nc4ccccc34)CC1)O2
2. CC(C)(C)n1cc2c(n1)C(=O)CC1(CCN(C(=O)c3cc(-c4ccc(Cl)cc4)nc4ccccc34)CC1)O2
3. Cc1ccc(-c2cc(C(=O)N3CCC4(CC3)CC(=O)c3nn(C(C)(C)C)cc3O4)c3ccccc3n2)cc1
4. CCOc1cc(C(=O)N2CCC3(CC2)CC(=O)c2nn(C(C)(C)C)cc2O3)c2ccccc2n1
5. CC(C)(C)n1cc2c(n1)C(=O)CC1(CCN(C(=O)c3cc(-c4ccccc4)nc4ccccc34)CC1)O2
6. CC(C)(C)n1cc2c(n1)C(=O)CC1(CCN(C(=O)c3cc(-c4ccncc4)nc4ccccc34)CC1)O2
7. CN1CCN(c2cc(C(=O)N3CCC4(CC3)CC(=O)c3nn(C(C)(C)C)cc3O4)c3ccccc3n2)CC1
8. CC(C)(C)n1cc2c(n1)C(=O)CC1(CCN(C(=O)c3cc(N4CCNCC4)nc4ccccc34)CC1)O2

**Result**
[103, 104, 101, 93.9, 101, 100, 97.4, 97.6]

Hey, quick one: what's inhibition for each of these?
1. CC(C)Oc1cc(C(=O)N2CCC3(CC2)CC(=O)c2nn(C(C)(C)C)cc2O3)c2ccccc2n1
2. COc1ccc(-c2cc(C(=O)N3CCC4(CC3)CC(=O)c3nn(C(C)(C)C)cc3O4)c3ccccc3n2)cc1
3. CC(C)(C)n1cc2c(n1)C(=O)CC1(CCN(C(=O)c3cc(-c4ccc(N)cc4)nc4ccccc34)CC1)O2
4. CC(C)(C)n1cc2c(n1)C(=O)CC1(CCN(C(=O)c3ccc4[nH]ncc4c3)CC1)O2

**Result**
1: 99.4; 2: 101; 3: 101; 4: 101

###

Would you mind telling me the reported log10(IC50) of each entry?
# System: HepG2
# Experiment: Antiproliferative activity against human HepG2 cells assessed as cell growth inhibition after 72 hrs by MTT assay
# Format: functional, cell-based
# Assay conditions: HepG2, 72 h
Transform log10 | Measure IC50 | Unit nM

The examples below pair each entry with its known result.
[
  {
    "Chem smiles": "COc1ccc(-c2cc(C(=O)N3CCC4(CC3)CC(=O)c3nn(C(C)(C)C)cc3O4)c3ccccc3n2)cc1",
    "Endpoint result": 3.44
  },
  {
    "Chem smiles": "Cc1ccc(-c2cc(C(=O)N3CCC4(CC3)CC(=O)c3nn(C(C)(C)C)cc3O4)c3ccccc3n2)cc1",
    "Endpoint result": 3.16
  },
  {
    "Chem smiles": "CC(C)(C)n1cc2c(n1)C(=O)CC1(CCN(C(=O)c3cc(-c4ccc(N)cc4)nc4ccccc34)CC1)O2",
    "Endpoint result": 2.80
  },
  {
    "Chem smiles": "COc1ccc(-c2cc(C(=O)N3CCC4(CC3)CC(=O)c3nn(C(C)(C)C)cc3O4)c3ccccc3n2)cc1OC",
    "Endpoint result": 3.19
  },
  {
    "Chem smiles": "COc1cccc2c1C(=O)c1c(O)c3c(c(O)c1C2=O)C[C@@](O)(C(=O)CO)C[C@@H]3O[C@H]1C[C@H](N)[C@H](O)[C@H](C)O1",
    "Endpoint result": 2.84
  }
]

Here are 6 molecules. What values of log10(IC50) were reported for them?
1. CC(C)(C)n1cc2c(n1)C(=O)CC1(CCN(C(=O)c3cc(-c4ccc(Br)cc4)nc4ccccc34)CC1)O2
2. Cc1cc(C(=O)N2CCC3(CC2)CC(=O)c2nn(C(C)(C)C)cc2O3)c2ccccc2n1
3. CC(C)(C)n1cc2c(n1)C(=O)CC1(CCN(C(=O)c3cc(-c4ccncc4)nc4ccccc34)CC1)O2
4. CC(C)(C)n1cc2c(n1)C(=O)CC1(CCN(C(=O)c3cc(-c4ccccn4)nc4ccccc34)CC1)O2
5. CC(C)(C)n1cc2c(n1)C(=O)CC1(CCN(C(=O)c3cc(-c4ccc(F)cc4)nc4ccccc34)CC1)O2
6. CC(C)(C)n1cc2c(n1)C(=O)CC1(CCN(C(=O)c3cc(N4CCNCC4)nc4ccccc34)CC1)O2

**Result**
2.91
3.98
2.58
3.18
3.47
3.93

**Query** Identify the reported log10(IC50) for the following entry. CC(C)(C)n1cc2c(n1)C(=O)CC1(CCN(C(=O)c3cc(N4CCOCC4)nc4ccccc34)CC1)O2
**Result** 3.66
